src = patent US6573293B2

- TARGET OR TEST SYSTEM: human cdk2/cyclin A (Homo sapiens)
- PROCEDURE SUMMARY: CDK2/cyclin A scintillation proximity assay (cdk2spa)
- ASSAY CONTEXT: read-out: cdk2spa C50
pIC50: −log10 of the molar value.
Reported pIC50 is given for each of the following compounds.
VALUE KIND: pIC50

CNS(=O)(=O)c1ccc2c(c1)C(=Cc1[nH]cc(C(=O)O)c1C)C(=O)N2 [Example 115]	8.22
CNS(=O)(=O)c1ccc2c(c1)C(=Cc1[nH]cc(C(=O)NCC(=O)O)c1C)C(=O)N2 [Example 118]	8.70

----------
- TARGET OR TEST SYSTEM: GST-Flk1 (Mus musculus, UniProt P35918)
- Construct: GST-Flk1cd purified from sf9 recombinant baculovirus transformation
- Sequence (P35918 784-1345 limits assumed): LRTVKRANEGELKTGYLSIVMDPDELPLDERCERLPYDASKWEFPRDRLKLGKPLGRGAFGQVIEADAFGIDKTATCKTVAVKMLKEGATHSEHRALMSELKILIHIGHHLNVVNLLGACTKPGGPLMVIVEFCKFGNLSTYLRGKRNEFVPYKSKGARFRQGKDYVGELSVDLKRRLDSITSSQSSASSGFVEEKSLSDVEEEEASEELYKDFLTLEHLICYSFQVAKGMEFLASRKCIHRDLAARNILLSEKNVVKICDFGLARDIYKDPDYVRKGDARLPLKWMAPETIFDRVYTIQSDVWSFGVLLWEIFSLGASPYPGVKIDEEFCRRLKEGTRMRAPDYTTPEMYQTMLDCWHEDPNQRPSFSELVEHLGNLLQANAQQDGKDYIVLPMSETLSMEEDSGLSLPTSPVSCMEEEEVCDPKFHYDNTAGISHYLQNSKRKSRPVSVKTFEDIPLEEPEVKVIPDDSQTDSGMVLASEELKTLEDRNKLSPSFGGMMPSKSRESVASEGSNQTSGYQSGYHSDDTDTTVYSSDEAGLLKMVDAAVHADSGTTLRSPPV
- PROCEDURE SUMMARY: GST-FLK-1 bioassay (bio flkGST)
pIC50: −log10 of the molar value.
Reported pIC50 values are given for each entry in this list.
VALUE KIND: pIC50

Cc1[nH]c(/C=C2\C(=O)Nc3ccc(Br)cc32)c(C)c1C(=O)NCc1ccncc1 [Example 74]	5.92
CC(C)c1[nH]c(/C=C2\C(=O)Nc3ccc(Br)cc32)c(C(C)C)c1C(=O)NCCCN1CCCC1 [Example 73]	5.23
CCCCc1ccc(-c2ccc3c(c2)NC(=O)/C3=C\c2[nH]c(C)c(C(=O)NCCN3CCCC3)c2C)cc1 [Example 75]	5.57

----------
- TARGET OR TEST SYSTEM: EGFR (Homo sapiens, UniProt P00533)
- Construct: A431 cell lysate (SUGEN, Inc.); host or cells: A431
- Sequence (P00533 25-1210): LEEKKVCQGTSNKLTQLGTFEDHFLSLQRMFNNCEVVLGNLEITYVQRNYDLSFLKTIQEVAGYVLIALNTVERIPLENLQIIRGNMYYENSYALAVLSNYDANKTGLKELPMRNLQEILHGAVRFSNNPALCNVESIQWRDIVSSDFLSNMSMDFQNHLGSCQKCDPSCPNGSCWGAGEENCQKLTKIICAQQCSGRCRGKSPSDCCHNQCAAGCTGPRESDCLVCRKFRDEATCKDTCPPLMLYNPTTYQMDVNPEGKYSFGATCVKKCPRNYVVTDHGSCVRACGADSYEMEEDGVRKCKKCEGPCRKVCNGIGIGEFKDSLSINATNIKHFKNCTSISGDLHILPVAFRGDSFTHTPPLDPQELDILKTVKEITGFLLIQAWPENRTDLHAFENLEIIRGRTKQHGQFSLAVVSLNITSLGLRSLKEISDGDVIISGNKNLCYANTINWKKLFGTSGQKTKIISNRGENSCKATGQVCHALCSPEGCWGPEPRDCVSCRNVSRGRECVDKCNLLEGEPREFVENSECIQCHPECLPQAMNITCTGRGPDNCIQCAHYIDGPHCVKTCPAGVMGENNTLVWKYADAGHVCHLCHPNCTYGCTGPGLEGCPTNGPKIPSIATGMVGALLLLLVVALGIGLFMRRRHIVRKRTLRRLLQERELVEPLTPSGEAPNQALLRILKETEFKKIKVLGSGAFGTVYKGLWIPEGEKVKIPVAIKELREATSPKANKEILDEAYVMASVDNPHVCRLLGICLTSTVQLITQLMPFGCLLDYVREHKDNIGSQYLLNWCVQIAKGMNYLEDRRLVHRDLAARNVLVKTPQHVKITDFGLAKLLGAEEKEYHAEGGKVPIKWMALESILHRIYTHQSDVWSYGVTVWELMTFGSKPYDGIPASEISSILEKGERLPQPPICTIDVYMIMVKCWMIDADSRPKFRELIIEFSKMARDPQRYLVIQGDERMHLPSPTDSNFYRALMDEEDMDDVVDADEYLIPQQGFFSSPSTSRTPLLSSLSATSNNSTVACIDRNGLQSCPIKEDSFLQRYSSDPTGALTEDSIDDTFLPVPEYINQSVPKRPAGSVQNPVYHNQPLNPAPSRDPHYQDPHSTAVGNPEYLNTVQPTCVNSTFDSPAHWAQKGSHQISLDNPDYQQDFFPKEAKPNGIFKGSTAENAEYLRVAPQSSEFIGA
- PROCEDURE SUMMARY: EGFR bioassay (bio EGF)
- Type: biochemical
Listed below: IC50 values for each entry.
VALUE KIND: IC50 (µM)

Cc1c(C(=O)NCCCN2CCCC2)[nH]c(/C=C2\C(=O)Nc3ccc(Br)cc32)c1C(=O)c1ccccc1	16.8
CCN(CC)CCCNC(=O)c1c(C)[nH]c(/C=C2\C(=O)Nc3ccc(-c4ccccc4)cc32)c1C	31.4
CCN(CC)CCCNC(=O)c1[nH]c(/C=C2\C(=O)Nc3ccc(Br)cc32)c(C(=O)c2ccccc2)c1C	40.3
CC(=O)c1c(/C=C2\C(=O)Nc3ccc(Br)cc32)[nH]c(C(=O)NCCCN2CCCC2)c1C	18.7
CCN(CC)CCNC(=O)c1c(C)[nH]c(/C=C2\C(=O)Nc3cc(-c4cccnc4)ccc32)c1C	8.59
CCN(CC)CCCNC(=O)c1cc(C)c(/C=C2\C(=O)Nc3ccc(Br)cc32)[nH]1	5.07

----------
- TARGET OR TEST SYSTEM: HER-2 kinase (Homo sapiens, UniProt P04626)
- Construct: Use EGFr/HER-2 chimera/3T3-C7 cell line for this assay; It is expressed in mouse NIH 3T3 clone C7 cells; P00533 (Epidermal growth factor receptor)
- Sequence (P04626 720-987 limits assumed): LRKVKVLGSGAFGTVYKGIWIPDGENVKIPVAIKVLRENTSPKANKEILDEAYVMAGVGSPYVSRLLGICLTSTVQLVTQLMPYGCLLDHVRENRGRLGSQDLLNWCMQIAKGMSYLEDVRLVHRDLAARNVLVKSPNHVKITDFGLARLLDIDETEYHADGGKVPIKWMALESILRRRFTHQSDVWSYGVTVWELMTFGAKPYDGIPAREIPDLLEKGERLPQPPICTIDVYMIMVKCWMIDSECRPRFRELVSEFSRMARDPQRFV
- PROCEDURE SUMMARY: Cellular HER-2 kinase assay
- ASSAY CONTEXT: read-out: Her2 Kinase IC50
pIC50: −log10 of the molar value.
Rule: pIC50 under 5 gives No, otherwise Yes.

CCOC(=O)c1cc(C)c(/C=C2\C(=O)Nc3ccc(Cl)cc32)[nH]1 [Example 4]	No
Cc1[nH]c(/C=C2\C(=O)Nc3cc(-c4cccc(C(C)C)c4)ccc32)c(C)c1C(=O)NCCN1CCCC1 [Example 79]	No
Cc1[nH]c(/C=C2\C(=O)Nc3ccc(-c4ccccc4)cc32)c(C)c1C(=O)NCCCN(C)C [Example 66]	Yes
Cc1[nH]c(/C=C2\C(=O)Nc3ccc(S(=O)(=O)Nc4cccc(Cl)c4)cc32)c(C)c1C(=O)NCCN1CCCC1 [Example 83]	No
CCN(CC)CCCNC(=O)c1c(C)[nH]c(/C=C2\C(=O)Nc3ccc(-c4ccccc4)cc32)c1C [Example 67]	Yes
CC(=O)c1c(/C=C2\C(=O)Nc3ccc(Br)cc32)[nH]c(C(=O)NCCc2ccc(O)cc2)c1C [Example 36]	No
CCN(CC)CCCNC(=O)c1[nH]c(/C=C2\C(=O)Nc3cc(-c4ccccc4)ccc32)cc1C [Example 14]	No
COc1ccc(-c2ccc3c(c2)NC(=O)/C3=C\c2[nH]c(C)c(C(=O)NCCN3CCCC3)c2C)c(OC)c1 [Example 78]	Yes
CCN(CC)CCNC(=O)c1c(C)[nH]c(/C=C2\C(=O)Nc3cc(-c4ccccc4)ccc32)c1C [Example 59]	No
CCN(CC)CCNC(=O)c1c(C)[nH]c(/C=C2\C(=O)Nc3ccc(S(=O)(=O)Nc4cccc(Cl)c4)cc32)c1C [Example 88]	No

----------
# maps each entry to its pIC50
- TARGET OR TEST SYSTEM: EGFR (Homo sapiens, UniProt P00533)
- Construct: A431 cell lysate (SUGEN, Inc.); host or cells: A431
- PROCEDURE SUMMARY: EGFR bioassay (bio EGF)
- Format: biochemical
pIC50: −log10 of the molar value.
VALUE KIND: pIC50

CCN(CC)CCNC(=O)c1ccc(/C=C2\C(=O)Nc3cc(-c4ccccc4)ccc32)[nH]1	< 4.00
CCN(CC)CCN(C)C(=O)c1ccc(/C=C2\C(=O)Nc3cc(-c4ccccc4)ccc32)[nH]1	< 4.00
Cc1[nH]c(/C=C2\C(=O)Nc3cc(-c4ccccc4)ccc32)c(C)c1C(=O)NCCN1CCCC1	< 4.00
CCN(CC)CCNC(=O)c1c(C(C)C)[nH]c(/C=C2\C(=O)Nc3ccc(Br)cc32)c1-c1ccccc1	5.44
COC(=O)c1cc(C)c(/C=C2\C(=O)Nc3ccccc32)[nH]1	< 4.00
Cc1cc(C(=O)O)[nH]c1/C=C1\C(=O)N(C)c2ccccc21	< 4.00
CNS(=O)(=O)c1ccc2c(c1)C(=Cc1[nH]cc(C(=O)O)c1C)C(=O)N2	< 4.00
CCN(CC)CCNC(=O)c1[nH]c(/C=C2\C(=O)Nc3cc(-c4cccnc4)ccc32)c2c1CCCC2	< 4.00
CCN(CC)CCCNC(=O)c1[nH]c(/C=C2\C(=O)Nc3ccc(Br)cc32)c(C(C)=O)c1C	4.57
Cc1[nH]c(/C=C2\C(=O)Nc3cc(-c4ccccc4)ccc32)c(C)c1C(=O)NCCCn1ccnc1	< 4.00
CCN(CC)CCCNC(=O)c1c(C(C)C)[nH]c(/C=C2\C(=O)Nc3ccc(Br)cc32)c1-c1ccccc1	4.97
CCN(CC)CCNC(=O)c1c(C)[nH]c(/C=C2\C(=O)Nc3cc(-c4ccccc4)ccc32)c1C	< 4.00
COc1cccc(-c2ccc3c(c2)NC(=O)/C3=C\c2[nH]c(C)c(C(=O)NCCN(C)C)c2C)c1	5.22
Cc1[nH]c(/C=C2\C(=O)Nc3ccc(-c4ccccc4)cc32)c(C)c1C(=O)NCCCN(C)C	< 4.00
Cc1c(C(=O)NCCCN2CCCC2)[nH]c(/C=C2\C(=O)Nc3ccc(F)cc32)c1C(=O)c1ccccc1	4.27
Cc1[nH]c(/C=C2\C(=O)Nc3cccc(CCO)c32)c(C)c1C(=O)N1CCN(C)CC1	< 4.00

----------
Below: a set of entries, each annotated with reported IC50.
- TARGET OR TEST SYSTEM: HER-2 kinase (Homo sapiens)
- Construct: Use EGFr/HER-2 chimera/3T3-C7 cell line for this assay; It is expressed in mouse NIH 3T3 clone C7 cells; P00533 (Epidermal growth factor receptor)
- PROCEDURE SUMMARY: Cellular HER-2 kinase assay
- Format: cell-based
- ASSAY CONTEXT: read-out: Her2 Kinase IC50
VALUE KIND: IC50 (µM)

Cc1[nH]c(/C=C2\C(=O)Nc3ccc(S(=O)(=O)Nc4cccnc4)cc32)c(C)c1C(=O)NCCN1CCCC1 [Example 84]	5.86
CC(=O)c1c(/C=C2\C(=O)Nc3ccc(Br)cc32)[nH]c(C(=O)NCCN2CCCC2)c1C [Example 35]	54.1
CN(C)CCNC(=O)c1[nH]c(/C=C2\C(=O)Nc3ccc(Br)cc32)c2c1CCCC2 [Example 89]	16
CCN(CC)CCCNC(=O)c1[nH]c(/C=C2\C(=O)Nc3cc(OC)ccc32)cc1C [Example 16]	23.3
CCN(CC)CCNC(=O)c1ccc(/C=C2\C(=O)Nc3cc(-c4ccccc4)ccc32)[nH]1 [Example 9]	16.4
CCN(CC)CCNC(=O)c1ccc(/C=C2\C(=O)Nc3ccc(Br)cc32)[nH]1 [Example 8]	5.5
Cc1[nH]c(/C=C2\C(=O)Nc3ccc(Br)cc32)c(-c2ccccc2)c1C(=O)NCCN1CCCC1 [Example 42]	20.4
O=C1Nc2ccc(Br)cc2/C1=C/c1[nH]c(C(=O)NCCCN2CCCC2)c2c1CCCC2 [Example 19]	8.37
CCN(CC)CCCNC(=O)c1c(C)[nH]c(/C=C2\C(=O)Nc3ccc(Br)cc32)c1-c1ccccc1 [Example 47]	8.4
Cc1c(C(=O)NCCCN2CCCC2)[nH]c(/C=C2\C(=O)Nc3cc(-c4ccccc4)ccc32)c1C(=O)c1ccccc1 [Example 25]	7.9
Cc1c(C(=O)NCCCN2CCOCC2)[nH]c(/C=C2\C(=O)Nc3ccc(Br)cc32)c1C(=O)c1ccccc1 [Example 22]	87.7
CCN(CC)CCCNC(=O)c1[nH]c(/C=C2\C(=O)Nc3ccccc32)cc1C [Example 12]	27.7
